Assay: Oral bioavailability in rat at 3 mg/kg, iv and 10 mg/kg, po
Format: ADME, organism-based
Conditions: in vivo
Observed property: bioavailability (%)
Answer in %, number only, no unit symbol.

{"Molecule": "CN(C)CC1CNc2cc(-n3cnc4cc(-c5ccc(Cl)cc5)sc4c3=O)ccc2O1 (stereo unspecified)", "Unit of measurement": "%", "bioavailability": 75}

Here is the next item to consider.
Item O=c1c2sc(-c3ccc(Cl)cc3)cc2ncn1-c1ccc2nc(CN3CCC(c4ccc(F)cc4)CC3)ccc2c1 : provide bioavailability
30

* * *

Molecular target: UniProt:Q99705
Sequence (Q99705 whole entry, the tested form may be a part): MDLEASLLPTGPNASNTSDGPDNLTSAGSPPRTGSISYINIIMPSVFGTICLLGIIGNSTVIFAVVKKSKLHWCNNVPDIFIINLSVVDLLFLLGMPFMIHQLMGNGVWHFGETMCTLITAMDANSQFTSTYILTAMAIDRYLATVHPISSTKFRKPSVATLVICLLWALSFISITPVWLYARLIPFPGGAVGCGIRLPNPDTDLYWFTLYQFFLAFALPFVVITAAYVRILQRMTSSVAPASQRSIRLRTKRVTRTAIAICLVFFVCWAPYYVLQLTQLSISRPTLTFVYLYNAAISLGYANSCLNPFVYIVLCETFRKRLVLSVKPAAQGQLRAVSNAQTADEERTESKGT
Assay: Antagonist activity against human MCHR1 expressed in CHO cells by Gal4/Elk1-Luc reporter assay
This section presents molecules with their documented pIC50 values.
pIC50 (log units): -log10 of the concentration in mol/L.

Please give measured pIC50 of the following entry: O=c1c2sc(-c3ccc(Cl)cc3)cc2ncn1-c1ccc2nc(CN3CCC(c4ccc(C(F)(F)F)cc4)CC3)ccc2c1
8.21

For the molecule CCN1CCN(Cc2ccc3cc(-n4cnc5cc(-c6ccc(Cl)cc6)sc5c4=O)ccc3n2)CC1 , give its reported pIC50.
8.21

Consider the molecule O=c1c2sc(-c3ccc(Cl)cc3)cc2ncn1-c1ccc2c(c1)NCC(CN1CCOCC1)O2 (stereo unspecified) . State its measured pIC50.
8.07

Identify the reported pIC50 for the following entry. CN(C)CC1COc2cc(-n3cnc4cc(-c5ccc(Cl)cc5)sc4c3=O)ccc2O1 (stereo unspecified)
8.11

Provide pIC50 value for the following molecule: O=c1c2sc(-c3ccc(Cl)cc3)cc2ncn1-c1ccc2nc(CN3CCOCC3)ccc2c1
8.31

Return value of pIC50 for input O=c1c2sc(-c3ccc(Cl)cc3)cc2ncn1-c1ccc2nc(CN3CCC(CCN4CCCC4)CC3)ccc2c1 , no commentary.
8.82

For O=c1c2sc(-c3ccc(Cl)cc3)cc2ncn1-c1ccc2c(c1)OC[C@@H](CN1CCCC1)O2 , write its pIC50.
8.15

Quick one: give measured pIC50 for O=c1c2sc(-c3ccc(Cl)cc3)cc2ncn1-c1ccc2nc(CN3CCCC3)ccc2c1
9.00

Find the measured pIC50 of CN(C)CC1CNc2cc(-n3cnc4cc(-c5ccc(Cl)cc5)sc4c3=O)ccc2O1 (stereo unspecified) and report it.
8.49

Please indicate pIC50 recorded for CN(C)Cc1ccc2cc(-n3cnc4cc(-c5ccc(Cl)cc5)sc4c3=O)ccc2n1
9.13

Quick one: give measured pIC50 for O=c1c2sc(-c3ccc(Cl)cc3)cc2ncn1-c1ccc2nc(CO)ccc2c1
8.46
